target: T1, Human 6xHis tagged NKp46 recombinant protein (human, UniProt O76036 22-255, limits assumed); assay: SPR Biacore T100, antibody captured on Protein-G chip, soluble NKp46-His 12.5-200 nM, single cycle kinetics, 1:1 model, monovalent
T1 construct: also called NKp46-His; soluble NKp46-His recombinant proteins; not shown: 6xHis tag
T1 sequence (O76036 22-255 Q82K limits assumed): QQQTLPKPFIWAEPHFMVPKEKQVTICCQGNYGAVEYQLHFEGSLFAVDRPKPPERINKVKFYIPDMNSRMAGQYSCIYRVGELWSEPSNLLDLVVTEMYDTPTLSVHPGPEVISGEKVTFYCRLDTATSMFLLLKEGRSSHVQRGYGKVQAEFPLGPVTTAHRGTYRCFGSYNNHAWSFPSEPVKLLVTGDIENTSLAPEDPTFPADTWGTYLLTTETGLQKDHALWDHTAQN
For each of the binders below, state its pKd.
Please treat pKd as minus the base-10 logarithm of the molar concentration.

The reported value for 8B6A (antibody, V domains shown, Mouse variable domains; light chain is kappa (VK); also called CHG1-M-H46 8B6-A) VH: QVQLQQPGSELVRPGASVKLSCKASGYTFTSYWMHWVKQRPGQGLEWIGTIYPGSDITNYDEKFKNKATLTVDTSSSTAYMQLSSLTSEDSAVYYCTRDGRFANWGQGTLVTVSA VL: EIVLTQSPAITAASLGQKVTITCSASSSVSYMHWYQQKSGTSPKPWIYEISKLASGVPARFSGSGSGTSYSLTISSMEAEDAAIYYCQQWNLPLTFGAGTKLELK in terms of pKd is 8.39

Record summary for 9H11A (antibody, V domains shown, also called CHG1-M-H46 9H11-A) VH: QVQLQQPGAELVKPGASVKLSCKASGYTFTSYWMHWVKLRPGQGFEWIGEIIPSNGVTNYNEKFKRKATLTVDKSSSTAYMQLSSLTSEDSAVYYCTIRLRYALDYWGQGTSVTVSA VL: DIQMTQTTSSLSASLGDRVTISCRASQDISNFLNWYQQKPDGTVKLLIYYTSRLHSGVPSRFSGSGSGTDYSLTISNLEQEDIATYFCQQGNTLPPTFGGGTKLEIK : reported pKd = 9.14

Lab note: measured pKd of 9H11B (antibody, V domains shown, Same heavy chain variable domain as 9H11A with a different light chain; also called CHG1-M-H46 9H11-B) VH: QVQLQQPGAELVKPGASVKLSCKASGYTFTSYWMHWVKLRPGQGFEWIGEIIPSNGVTNYNEKFKRKATLTVDKSSSTAYMQLSSLTSEDSAVYYCTIRLRYALDYWGQGTSVTVSA VL: DIVMTQSQKFMSTSVGDRVSVTCKASQNVGTNVAWYQQKPGQSPKALIYSTSFRYSGVPDRFTGSGSGTDFTLTISNVQSEDLAEYFCQQYNSYPFTFGSGTKLEIK was 9.05

Per the records, this binder ( 8B6B (antibody, V domains shown, Same heavy chain variable domain as 8B6A with a different light chain; also called CHG1-M-H46 8B6-B) VH: QVQLQQPGSELVRPGASVKLSCKASGYTFTSYWMHWVKQRPGQGLEWIGTIYPGSDITNYDEKFKNKATLTVDTSSSTAYMQLSSLTSEDSAVYYCTRDGRFANWGQGTLVTVSA VL: EIQMTQSPSSLSASLGERVSLTCRASQDIGSSLNWLQQEPDGTIKRLIYATSSLDSGVPKRFSGSRSGSDYSLTISSLESEDFVDYYCLQYASSPYTFGGGTKLEIK ) has pKd equal to 8.39
